All figures here come from patent US20260315494A1.

Test: Single-dose pharmacokinetics of T+Ai pellet implant (80 mg testosterone + 4 mg anastrozole, subcutaneous)
Conditions: human, in vivo, sc, 80 mg, Measured serum testosterone, GeoMean, geometric mean, 4 h post-dose
result.type: concentration at 4 h (ng/mL)
Number in ng/mL, nothing else.

Q: Which value of concentration at 4 h has been reported for C[C@]12CC[C@H]3[C@@H](CCC4=CC(=O)CC[C@@]43C)[C@@H]1CC[C@@H]2O [Testosterone, testosterone] in the records?
Result: 0.94

* * *

Assay: Single-dose pharmacokinetics of T+Ai pellet implant (80 mg testosterone + 4 mg anastrozole, subcutaneous)
Settings: human, in vivo, sc, 4 mg, Measured serum anastrozole, median, 1344 h post-dose
result.type: concentration at 1344 h (ng/mL)
Number in ng/mL, nothing else.

Q: Which value of concentration at 1344 h has been reported for CC(C)(C#N)c1cc(Cn2cncn2)cc(C(C)(C)C#N)c1 in the records?
Result: 0.16

* * *

Test: Single-dose pharmacokinetics of T+Ai pellet implant (80 mg testosterone + 4 mg anastrozole, subcutaneous)
Settings: human, in vivo, sc, 4 mg, Measured serum anastrozole, mean, 96 h post-dose
result.type: concentration at 96 h (ng/mL)
Number in ng/mL, nothing else.

Q: Which value of concentration at 96 h has been reported for CC(C)(C#N)c1cc(Cn2cncn2)cc(C(C)(C)C#N)c1 in the records?
Result: 4.62

* * *

Experiment: Single-dose pharmacokinetics of T+Ai pellet implant (80 mg testosterone + 4 mg anastrozole, subcutaneous)
Conditions: human, in vivo, sc, 4 mg, Measured serum anastrozole, median, 2 h post-dose
result.type: concentration at 2 h (ng/mL)
Number in ng/mL, nothing else.

Q: Which value of concentration at 2 h has been reported for CC(C)(C#N)c1cc(Cn2cncn2)cc(C(C)(C)C#N)c1 in the records?
Result: 0.62

* * *

Assay: Single-dose pharmacokinetics of T+Ai pellet implant (80 mg testosterone + 4 mg anastrozole, subcutaneous)
Details: human, in vivo, sc, 4 mg, Measured serum anastrozole, median, 4 h post-dose
result.type: concentration at 4 h (ng/mL)
Number in ng/mL, nothing else.

Q: Which value of concentration at 4 h has been reported for CC(C)(C#N)c1cc(Cn2cncn2)cc(C(C)(C)C#N)c1 in the records?
Result: 1.12

* * *

Assay: Single-dose pharmacokinetics of T+Ai pellet implant (80 mg testosterone + 4 mg anastrozole, subcutaneous)
Details: human, in vivo, sc, 4 mg, Measured serum anastrozole, median, 8 h post-dose
result.type: concentration at 8 h (ng/mL)
Number in ng/mL, nothing else.

Q: Which value of concentration at 8 h has been reported for CC(C)(C#N)c1cc(Cn2cncn2)cc(C(C)(C)C#N)c1 in the records?
Result: 3.5

* * *

Assay: Single-dose pharmacokinetics of T+Ai pellet implant (80 mg testosterone + 4 mg anastrozole, subcutaneous)
Conditions: human, in vivo, sc, 80 mg, Measured serum testosterone, GeoMean, geometric mean, 6 h post-dose
result.type: concentration at 6 h
The answer consists of two parts: a number and, after it, its unit.

Q: Which value of concentration at 6 h has been reported for C[C@]12CC[C@H]3[C@@H](CCC4=CC(=O)CC[C@@]43C)[C@@H]1CC[C@@H]2O in the records?
Result: 2.53 ng/mL

* * *

Assay: Single-dose pharmacokinetics of T+Ai pellet implant (80 mg testosterone + 4 mg anastrozole, subcutaneous)
Conditions: human, in vivo, sc, 4 mg, Measured serum anastrozole, median, 504 h post-dose
result.type: concentration at 504 h (ng/mL)
Number in ng/mL, nothing else.

Q: Which value of concentration at 504 h has been reported for CC(C)(C#N)c1cc(Cn2cncn2)cc(C(C)(C)C#N)c1 in the records?
Result: 1.36

* * *

Experiment: Single-dose pharmacokinetics of T+Ai pellet implant (80 mg testosterone + 4 mg anastrozole, subcutaneous)
Conditions: human, in vivo, sc, 4 mg, Measured serum anastrozole, mean, 504 h post-dose
result.type: concentration at 504 h

Q: Which value of concentration at 504 h has been reported for CC(C)(C#N)c1cc(Cn2cncn2)cc(C(C)(C)C#N)c1 in the records?
Result: 1.47 ng/mL

* * *

Experiment: Single-dose pharmacokinetics of T+Ai pellet implant (80 mg testosterone + 4 mg anastrozole, subcutaneous)
Settings: human, in vivo, sc, 80 mg
result.type: Tmax

Q: Which value of Tmax has been reported for C[C@]12CC[C@H]3[C@@H](CCC4=CC(=O)CC[C@@]43C)[C@@H]1CC[C@@H]2O in the records?
Result: 6 to 12 h

* * *

Assay: Single-dose pharmacokinetics of T+Ai pellet implant (80 mg testosterone + 4 mg anastrozole, subcutaneous)
Details: human, in vivo, sc, 4 mg, Measured serum anastrozole, median, 72 h post-dose
result.type: concentration at 72 h (ng/mL)
Number in ng/mL, nothing else.

Q: Which value of concentration at 72 h has been reported for CC(C)(C#N)c1cc(Cn2cncn2)cc(C(C)(C)C#N)c1 in the records?
Result: 4.92

* * *

Assay: Single-dose pharmacokinetics of T+Ai pellet implant (80 mg testosterone + 4 mg anastrozole, subcutaneous)
Settings: human, in vivo, sc, 4 mg, Measured serum anastrozole, GeoMean, geometric mean, 1 h post-dose
result.type: concentration at 1 h
The answer consists of two parts: a number and, after it, its unit.

Q: Which value of concentration at 1 h has been reported for CC(C)(C#N)c1cc(Cn2cncn2)cc(C(C)(C)C#N)c1 in the records?
Result: 0.35 ng/mL

* * *

Assay: Single-dose pharmacokinetics of T+Ai pellet implant (80 mg testosterone + 4 mg anastrozole, subcutaneous)
Conditions: human, in vivo, sc, 4 mg, Measured serum anastrozole, median, 12 h post-dose
result.type: concentration at 12 h

Q: Which value of concentration at 12 h has been reported for CC(C)(C#N)c1cc(Cn2cncn2)cc(C(C)(C)C#N)c1 [Anastrozole] in the records?
Result: 4.32 ng/mL

* * *

Assay: Single-dose pharmacokinetics of T+Ai pellet implant (80 mg testosterone + 4 mg anastrozole, subcutaneous)
Conditions: human, in vivo, sc, 80 mg, Measured serum testosterone, mean, 1344 h post-dose
result.type: concentration at 1344 h (ng/mL)
Number in ng/mL, nothing else.

Q: Which value of concentration at 1344 h has been reported for C[C@]12CC[C@H]3[C@@H](CCC4=CC(=O)CC[C@@]43C)[C@@H]1CC[C@@H]2O in the records?
Result: 1.25

* * *

Assay: Single-dose pharmacokinetics of T+Ai pellet implant (80 mg testosterone + 4 mg anastrozole, subcutaneous)
Conditions: human, in vivo, sc, 80 mg, Measured serum testosterone, mean, 2 h post-dose
result.type: concentration at 2 h (ng/mL)
Number in ng/mL, nothing else.

Q: Which value of concentration at 2 h has been reported for C[C@]12CC[C@H]3[C@@H](CCC4=CC(=O)CC[C@@]43C)[C@@H]1CC[C@@H]2O [Testosterone, testosterone] in the records?
Result: 0.73

* * *

Assay: Single-dose pharmacokinetics of T+Ai pellet implant (80 mg testosterone + 4 mg anastrozole, subcutaneous)
Conditions: human, in vivo, sc, 4 mg, Measured serum anastrozole, mean, 12 h post-dose
result.type: concentration at 12 h (ng/mL)
Number in ng/mL, nothing else.

Q: Which value of concentration at 12 h has been reported for CC(C)(C#N)c1cc(Cn2cncn2)cc(C(C)(C)C#N)c1 in the records?
Result: 4.06

* * *

Assay: Single-dose pharmacokinetics of T+Ai pellet implant (80 mg testosterone + 4 mg anastrozole, subcutaneous)
Details: human, in vivo, sc, 80 mg, Measured serum testosterone, mean, 48 h post-dose
result.type: concentration at 48 h (ng/mL)
Number in ng/mL, nothing else.

Q: Which value of concentration at 48 h has been reported for C[C@]12CC[C@H]3[C@@H](CCC4=CC(=O)CC[C@@]43C)[C@@H]1CC[C@@H]2O [Testosterone, testosterone] in the records?
Result: 1.83

* * *

Experiment: Single-dose pharmacokinetics of T+Ai pellet implant (80 mg testosterone + 4 mg anastrozole, subcutaneous)
Details: human, in vivo, sc, 4 mg
Method: The premenopausal women were aged between 35 and 55 years of age with a BMI range of 20-30 kg/m^2. […] The implant was intended to be left in situ and was expected to be almost completely absorbed within three months following insertion. […] (NB: the sample collection time point at 6 hours post-dose was added for the third and subsequent subject and so serum measurements were not determined for the first two subjects as noted below). […]
result.type: Tmax

Q: Which value of Tmax has been reported for CC(C)(C#N)c1cc(Cn2cncn2)cc(C(C)(C)C#N)c1 in the records?
Result: 24 to 72 h

* * *

Test: Single-dose pharmacokinetics of T+Ai pellet implant (80 mg testosterone + 4 mg anastrozole, subcutaneous)
Settings: human, in vivo, sc, 4 mg, Measured serum anastrozole, median, 24 h post-dose
result.type: concentration at 24 h (ng/mL)
Number in ng/mL, nothing else.

Q: Which value of concentration at 24 h has been reported for CC(C)(C#N)c1cc(Cn2cncn2)cc(C(C)(C)C#N)c1 [Anastrozole] in the records?
Result: 4.96
